experiment: pH of the study drug aqueous solution; type: physicochemical; conditions: study drugs of Example 2 (Table 4), aqueous solution
recorded endpoint: pH

N=C(N)NCCC[C@H](N)C(=O)O [15% arginine, arginine] : 10.9
[Na+].[OH-] [3% NaOH, sodium hydroxide] : 13.8
O=C([O-])O.[Na+] [7% sodium bicarbonate, sodium bicarbonate] : 8.1
[Na+].[OH-] [0.3% NaOH, sodium hydroxide] : 13.3

* * *

assay: pH of the study drug aqueous solution; format: physicochemical; settings: study drugs of Example 3 (Table 5), aqueous solution
Each record here notes measured pH.
recorded endpoint: pH

[Na+].[OH-] [3% NaOH, sodium hydroxide] : 13.7
O=C([O-])O.[Na+] [4% sodium bicarbonate, sodium bicarbonate] : 8.2
[Na+].[OH-] [1% NaOH, sodium hydroxide] : 13.4
[Na+].[OH-] [5% NaOH, sodium hydroxide] : 14.0
O=C([O-])O.[Na+] [7% sodium bicarbonate, sodium bicarbonate] : 8.1
O=C([O-])O.[Na+] [10% sodium bicarbonate, sodium bicarbonate] : 8.1

* * *

system: mouse liver cancer Hepa1-6 cells; test: Series B: tumor inhibition, Hepa1-6 transplantation tumor in 8-month-old mice (Example 10); format: in vivo; conditions: one intratumoral injection 100 μl/mouse, day 14
A collection of compounds and their measured r'14d, tumor inhibition rate (tumor volume)
recorded endpoint: r'14d, tumor inhibition rate (tumor volume) (%)

O=c1[nH]cc(F)c(=O)[nH]1 : 3.1
[Na+].[OH-] [3% NaOH, sodium hydroxide] : 2.8
CN(C)c1ccc2nc3ccc(=[N+](C)C)cc-3sc2c1 : 16.9
O=C([O-])O.[Na+] [7% sodium bicarbonate, sodium bicarbonate] : 3.9

* * *

test: pH of the study drug aqueous solution; type: physicochemical; conditions: study drugs of Example 6 (Table 8), aqueous solution
# maps each entry to its pH
recorded endpoint: pH

O=C([O-])O.[Na+] [15% sodium bicarbonate, sodium bicarbonate] : 8.1
Cl [5% hydrochloric acid, hydrochloric acid] : 0.1
O=C([O-])O.[Na+] [5% sodium bicarbonate, sodium bicarbonate] : 8.2
Cl [0.4% hydrochloric acid, hydrochloric acid] : 0.1
Cl [3.5% hydrochloric acid, hydrochloric acid] : 0.1

* * *

assay: pH of the study drug aqueous solution; format: physicochemical; conditions: study drugs of Example 5 (Table 7), aqueous solution
recorded endpoint: pH

CC(=O)O [30% acetic acid, acetic acid] : 2.5
CC(=O)[O-].[Na+] [10% sodium acetate, sodium acetate] : 9.3
CC(=O)O [3% acetic acid, acetic acid] : 2.6
NCC(=O)O : 6.8
CC(=O)O [15% acetic acid, acetic acid] : 2.5
CC(=O)[O-].[Na+] [30% sodium acetate, sodium acetate] : 9.4
O=C([O-])O.[Na+] [4% sodium bicarbonate, sodium bicarbonate] : 8.2

* * *

Reported Tumor inhibition rate values are given for each entry in this list.
system: breast cancer 4T1 cells; assay: Tumor inhibition, breast cancer 4T1 transplantation tumor (Example 7); type: in vivo, BALB/c mouse; settings: intratumoral; vs negative control
recorded endpoint: Tumor inhibition rate

CN(C)c1ccc2nc3ccc(=[N+](C)C)cc-3sc2c1 [0.3% methylene blue, methylene blue] : 3%
O=c1[nH]cc(F)c(=O)[nH]1 [0.25% 5-fluorouracil, 5-fluorouracil] : 11%
CN(C)c1ccc2nc3ccc(=[N+](C)C)cc-3sc2c1 [1% methylene blue, methylene blue] : 21%
NCC(=O)O [15% glycine, glycine] : 17%
O=c1[nH]cc(F)c(=O)[nH]1 [1% 5-fluorouracil, 5-fluorouracil] : 51%
N=C(N)NCCC[C@H](N)C(=O)O [15% arginine, arginine] : 25%

* * *

Recorded measurements of pH, one per entry
test: pH of the study drug aqueous solution; assay type: physicochemical; settings: study drugs of Example 4 (Table 6), aqueous solution
recorded endpoint: pH

N=C(N)NCCC[C@H](N)C(=O)O [15% arginine, arginine] : 11.0
O=C([O-])O.[Na+] [10% sodium bicarbonate, sodium bicarbonate] : 8.1
O=C([O-])[O-].[Na+].[Na+] [2.8% sodium carbonate, sodium carbonate] : 10.9

Data origin: patent US20230414617A1
